System: HCC 2998
Experiment: NCI tumour cell line growth inhibition, 48 h
Calls of active or inactive are those of the source. Rule as the data show it: active = GI50 up to about 1.1 µM and inactive = higher.
quantity: GI50

## Task // fetch HCC 2998 GI50 for CCOC(=O)N1CCN(c2ccc3ccc(N)nc3n2)CC1
## Result > 100 µM (inactive)

Now examine the next entry.
## Task // fetch HCC 2998 GI50 for C/C(=N\N(c1ccccc1)c1ccccc1)c1c(O)cc(C)oc1=O
## Result > 100 µM (inactive)

----------
Test system: HL-60
Assay: NCI tumour cell line growth inhibition, 48 h
The source made the active and inactive calls. No stated cut-off is given here; in the data, active = GI50 up to about 1.1 µM and inactive = higher.
Bench note: report the call from active, inactive

## Task What was the test verdict on CC1=NN(c2cccc(Cl)c2)C2(C1=Cc1ccc(N(C)C)cc1)C(Cl)C(=O)N2c1nc2ccccc2s1 (stereo unspecified) ?
## Result inactive

## Task // next record Nc1nc(Cl)cc(NCC2(CO)CC(OCc3ccccc3)C2)n1 (stereo unspecified)
## Result inactive
